Target: D(2) dopamine receptor (Rattus norvegicus)
Sequence (P61169 whole entry): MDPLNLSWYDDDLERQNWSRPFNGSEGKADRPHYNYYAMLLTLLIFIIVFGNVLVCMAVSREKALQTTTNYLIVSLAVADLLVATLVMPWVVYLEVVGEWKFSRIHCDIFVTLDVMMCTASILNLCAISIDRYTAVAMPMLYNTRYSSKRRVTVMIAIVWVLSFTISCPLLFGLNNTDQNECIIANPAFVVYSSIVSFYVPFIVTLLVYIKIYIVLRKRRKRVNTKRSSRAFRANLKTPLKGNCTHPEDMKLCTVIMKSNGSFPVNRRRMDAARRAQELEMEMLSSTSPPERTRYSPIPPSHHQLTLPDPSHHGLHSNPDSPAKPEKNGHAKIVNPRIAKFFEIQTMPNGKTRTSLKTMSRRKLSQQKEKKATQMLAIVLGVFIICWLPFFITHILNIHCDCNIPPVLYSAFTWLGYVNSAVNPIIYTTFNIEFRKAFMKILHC
Assay: Binding affinity towards Dopamine receptor D2 in rat striatal tissue by [3H]spiperone displacement.
endpoint_label: log10(Ki) (log10 of the value in nM)
Scale: decimal log of Ki, Ki in nM.

Would you please look over these solved cases?
CCCC1CN(C)CCc2cc(Cl)c(O)cc21 (stereo not drawn) :: 3.06
CN1CCc2cc(Cl)c(O)cc2C2(CCCC2)C1 :: 3.35
CN1CCc2cc(Cl)c(O)cc2C(C2CCCCCC2)C1 (stereo not drawn) :: 3.08

Provide the reported log10(Ki) of each entry below, same order.
1. CN1CCc2cc(Cl)c(O)cc2C(C2C=CC=CC=C2)C1 (stereo not drawn)
2. CN1CCc2cc(Cl)c(O)cc2C(C2=CCCCC2)C1 (stereo not drawn)
3. CCSC1CN(C)CCc2cc(Cl)c(O)cc21 (stereo not drawn)
4. CN1CCc2cc(Cl)c(O)cc2C(C2=CCCC2)C1 (stereo not drawn)
5. CN1CCc2cc(O)c(Cl)cc2CC1

[3.26, 3.20, 3.43, 3.19, 2.42]

Parameter requested: log10(Ki). Apply to each item below.
1. CN1CCc2cc(Cl)c(O)cc2C(C2CCCCC2)C1 (stereo not drawn)
2. C#CCC1CN(C)CCc2cc(Cl)c(O)cc21 (stereo not drawn)
3. CN1CCc2cc(Cl)c(O)cc2C(C2CCCC2)C1 (stereo not drawn)

3.25
2.80
3.31

* * *

Molecular target: D(2) dopamine receptor (Rattus norvegicus)
Assay: Binding affinity towards Dopamine receptor D2 in rat striatal tissue by [3H]spiperone displacement.
endpoint_label: Ki

Hello, I would appreciate it if you could give Ki for each entry below.
1. CN1CCc2cc(Cl)c(O)cc2C(C2C=CCCC2)C1 (stereo not drawn)
2. CN(C)CCCC1CN(C)CCc2cc(Cl)c(O)cc21 (stereo not drawn)
3. C=CCC1CN(C)CCc2cc(Cl)c(O)cc21 (stereo not drawn)

["581 nM", "> 100000 nM", "284 nM"]

* * *

Test system: Rattus norvegicus
Assay: Minimal dose producing reduction in avoidance responding after sc administration for 1 hr in rat
Type: functional
endpoint_label: CAR

Worked examples, 3 molecules total:
C#CCC1CN(C)CCc2cc(Cl)c(O)cc21 (centres undefined) :: 1 MPK
CN1CCc2cc(Cl)c(O)cc2C(N2CCCCC2)C1 (centres undefined) :: 3 MPK
CN1CCc2cc(Cl)c(O)cc2C2(CCCC2)C1 :: 1 MPK

Your task in this section: give CAR for each listed record.
1. CN1CCc2cc(Cl)c(O)cc2C(C2=CCCCC2)C1 (centres undefined)
2. C=CCC1CN(C)CCc2cc(Cl)c(O)cc21 (centres undefined)
3. CN1CCc2cc(O)c(Cl)cc2CC1
4. CN1CCc2cc(Cl)c(O)cc2C(C2CCCC2)C1 (centres undefined)

1. 0.1 MPK
2. 0.1 MPK
3. 1 MPK
4. 1 MPK

* * *

Target: UniProt:P18901
Sequence (P18901 whole entry): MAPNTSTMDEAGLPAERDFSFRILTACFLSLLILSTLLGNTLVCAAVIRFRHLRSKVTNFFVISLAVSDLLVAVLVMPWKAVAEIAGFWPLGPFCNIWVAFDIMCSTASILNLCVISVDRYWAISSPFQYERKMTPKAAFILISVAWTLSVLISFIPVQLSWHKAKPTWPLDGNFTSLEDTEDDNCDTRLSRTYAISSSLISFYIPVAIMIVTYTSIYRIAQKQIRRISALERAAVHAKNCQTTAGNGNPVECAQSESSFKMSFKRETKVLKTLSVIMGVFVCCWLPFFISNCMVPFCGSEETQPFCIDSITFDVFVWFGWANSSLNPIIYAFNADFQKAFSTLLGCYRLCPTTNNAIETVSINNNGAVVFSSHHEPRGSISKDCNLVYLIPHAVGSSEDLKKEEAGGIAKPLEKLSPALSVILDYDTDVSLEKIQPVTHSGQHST
Experiment: Binding affinity towards Dopamine receptor D1 in rat striatal tissue by [3H]-SCH- 23390 displacement.
endpoint_label: pKi
Answers are plain numbers, as −log10 of the molar value.

Provide reported pKi for each item, in the same order as listed.
1. CN1CCc2cc(Cl)c(O)cc2C(C2=CCCCC2)C1 (centres undefined)
2. CN1CCc2cc(Cl)c(O)cc2C(C2C=CCCC2)C1 (centres undefined)
3. CN1CCc2cc(Cl)c(O)cc2C(C2CCCCCC2)C1 (centres undefined)
4. CCCC1CN(C)CCc2cc(Cl)c(O)cc21 (centres undefined)
5. C#CCC1CN(C)CCc2cc(Cl)c(O)cc21 (centres undefined)

1: 8.68; 2: 8.70; 3: 8.12; 4: 8.48; 5: 8.06
